- study.target: HCN2 (Homo sapiens (Human), UniProt Q9UL51)
- Sequence (Q9UL51 whole entry): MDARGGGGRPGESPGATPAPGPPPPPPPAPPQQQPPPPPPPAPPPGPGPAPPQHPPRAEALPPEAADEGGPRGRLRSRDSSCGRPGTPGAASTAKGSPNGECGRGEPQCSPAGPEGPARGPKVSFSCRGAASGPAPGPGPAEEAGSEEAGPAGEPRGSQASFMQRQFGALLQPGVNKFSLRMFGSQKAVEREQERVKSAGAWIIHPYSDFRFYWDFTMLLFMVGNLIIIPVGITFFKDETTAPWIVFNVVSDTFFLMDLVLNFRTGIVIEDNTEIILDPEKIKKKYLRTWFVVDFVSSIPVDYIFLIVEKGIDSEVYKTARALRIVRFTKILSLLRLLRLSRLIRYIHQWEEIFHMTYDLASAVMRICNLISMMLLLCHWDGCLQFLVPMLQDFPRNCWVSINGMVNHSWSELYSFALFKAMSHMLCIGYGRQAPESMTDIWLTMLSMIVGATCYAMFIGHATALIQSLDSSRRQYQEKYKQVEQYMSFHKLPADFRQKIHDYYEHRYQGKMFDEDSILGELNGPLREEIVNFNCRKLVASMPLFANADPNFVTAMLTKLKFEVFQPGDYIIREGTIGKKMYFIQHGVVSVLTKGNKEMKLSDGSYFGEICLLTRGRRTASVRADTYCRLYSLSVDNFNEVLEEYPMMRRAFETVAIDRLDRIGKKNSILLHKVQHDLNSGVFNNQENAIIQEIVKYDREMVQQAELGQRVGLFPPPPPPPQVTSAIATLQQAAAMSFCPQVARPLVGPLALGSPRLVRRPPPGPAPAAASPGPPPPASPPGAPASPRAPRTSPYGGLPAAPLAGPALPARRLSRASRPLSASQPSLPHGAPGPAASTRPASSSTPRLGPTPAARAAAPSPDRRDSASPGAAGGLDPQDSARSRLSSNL
- assay.details: HCN2 current assay using PatchXpress 7000A
- Assay type: cell-based
- condition.summary: PatchXpress protocol; read-out: PX HCN2 IC50
- Protocol: Example 126A, Using PatchXpress 7000A Solutions for recording HCN currents were: The membrane voltage was then stepped back to −30 mV for a further 8 seconds. The peak inward current measured at the end of the pulse to −110 mV (HCN1 and HCN2) or −130 mV (HCN4) was measured and any leak current subtracted to calculate the HCN current. The HCN current amplitude was measured after each control or compound addition and normalized to the control amplitude (Control A). […]
Counter-ions that a name gives are not always drawn.
value.type: log10 of IC50 (log10 of the value in µM)
A value of 2 here means IC50 of 100 in µM, since values are log10.

Would you please look over these solved cases?
Per the records, this compound ( CC[C@@H](c1ccccn1)[C@H](N)c1ccccc1-c1noc2ccccc12 [Example 46, hydrochloride] ) has log10 of IC50 equal to 0.48

Per the records, this compound ( Cc1cccc(-c2noc3ccccc23)c1[C@@H](N)Cc1ccccn1 [Example 84, hydrochloride] ) has log10 of IC50 equal to -0.05

Per the records, this compound ( Cc1ccc(C#N)nc1C[C@H](N)c1ccccc1-c1noc2ccccc12 [Example 58] ) has log10 of IC50 equal to -0.30

Per the records, this compound ( N#Cc1ccc(C[C@H](N)c2ccccc2-c2noc3cc(Br)ccc23)nc1 [Example 81] ) has log10 of IC50 equal to 1.03

Per the records, this compound ( N[C@@H](Cc1cccc(C(O)CO)n1)c1ccccc1-c1noc2ccccc12 (some centres unmarked) [Example 41, hydrochloride] ) has log10 of IC50 equal to 1.15

Per the records, this compound ( CN(CCO)c1cccc(C[C@H](N)c2ccccc2-c2noc3ccccc23)n1 [Example 55, hydrochloride] ) has log10 of IC50 equal to -0.10

Per the records, this compound ( N[C@@H](Cc1cccc(N2CC[C@H](O)C2)n1)c1ccccc1-c1noc2ccccc12 [Example 53, hydrochloride] ) has log10 of IC50 equal to 0.79

Per the records, this compound ( N[C@@H](Cc1ccccn1)c1ccc(Br)cc1-c1noc2ccccc12 [Example 85] ) has log10 of IC50 equal to 1.11

Kindly give each listed record's log10 of IC50.
1. CC(C)n1nc(-c2ccccc2[C@@H](N)Cc2cccc(C#N)n2)c2ccccc21 [Example 67]
2. N[C@@H](Cc1ccccn1)c1ccccc1-c1noc2ccc(Br)cc12 [Example 113, hydrochloride]

Response:
[0.11, 1.36]

Kindly give each listed record's log10 of IC50.
1. CS(=O)(=O)c1nc(C[C@H](N)c2ccccc2-c2noc3ccccc23)ccc1F [Example 7, hydrochloride]
2. Cc1cccc(C[C@H](N)c2ccccc2-c2noc3cc(C#N)ccc23)n1 [Example 96]

Response:
1: 0.76; 2: 0.46

Kindly give each listed record's log10 of IC50.
1. CC[C@H](c1ccccn1)[C@H](N)c1ccccc1-c1noc2ccccc12 [Example 45, hydrochloride]
2. N#Cc1nc(C[C@H](N)c2ccccc2-c2noc3ccccc23)ccc1F [Example 6, hydrochloride]
3. N[C@@H](Cc1nc(CCO)ccc1F)c1ccccc1-c1noc2ccccc12 [Example 77, hydrochloride]
4. CC(=O)Nc1cccnc1C[C@H](N)c1ccccc1-c1noc2ccccc12 [Example 76, hydrochloride]
5. CC(C)C(c1ccccn1)[C@H](N)c1ccccc1-c1noc2ccccc12 (some centres unmarked) [Example 48, hydrochloride]
6. Cc1ccc([C@@H](N)Cc2ccccn2)c(-c2noc3ccccc23)c1 [Example 38, hydrochloride]

Response:
1.34
-0.41
-0.05
0.94
0.73
1.11

Kindly give each listed record's log10 of IC50.
1. COc1ccc(-c2noc3ccccc23)c([C@@H](N)Cc2ccccn2)c1 [Example 82, hydrochloride]
2. NC(=O)c1cccc(C[C@H](N)c2ccccc2-c2noc3ccccc23)n1 [Example 104, hydrochloride]
3. Cc1cccnc1C[C@H](N)c1ccccc1-c1noc2ccccc12 [Example 47, hydrochloride]
4. CNC(=O)c1cccc(C[C@H](N)c2ccccc2-c2noc3ccccc23)n1 [Example 105, hydrochloride]
5. COCc1ccc2c(-c3ccccc3[C@@H](N)Cc3ccccn3)noc2c1 [Example 39]
6. CNC(=O)Nc1cccc(C[C@H](N)c2ccccc2-c2noc3ccccc23)n1 [Example 122, hydrochloride]

Response:
1: 1.42; 2: 0.41; 3: -0.22; 4: 0.62; 5: 0.60; 6: 0.98

Kindly give each listed record's log10 of IC50.
1. CS(=O)(=O)Nc1cccc(C[C@H](N)c2ccccc2-c2noc3ccccc23)n1 [Example 123, hydrochloride]
2. Cn1nc(-c2ccccc2[C@@H](N)Cc2ccccn2)c2ccccc21 [Example 60, hydrochloride]
3. N#Cc1ccc2c(-c3ccccc3[C@@H](N)Cc3cccc(C#N)n3)noc2c1 [Example 95]
4. Cc1ccc(-c2noc3ccccc23)c([C@@H](N)Cc2ccccn2)c1 [Example 36, hydrochloride]
5. N[C@@H](Cc1ccccn1)c1c(Br)cccc1-c1noc2ccccc12 [Example 87, hydrochloride]
6. NC(=O)c1ccc(F)c(C[C@H](N)c2ccccc2-c2noc3ccccc23)n1 [Example 72, formate]
7. CNc1cccc(C[C@H](N)c2ccccc2-c2noc3cc(C#N)ccc23)n1 [Example 97, dihydrochloride]

Response:
[0.77, 0.49, 0.15, 0.08, 0.23, 0.08, 0.41]

Per the records, this compound ( N[C@@H](Cc1ccccn1)c1ccccc1-c1noc2cc(CO)ccc12 [Example 30, hydrochloride] ) has log10 of IC50 equal to 0.48
